assay: Plasma pharmacokinetics in mice determined by GLMSD; format: in vivo, mouse; settings: ip; TMZ injected into abdominal cavity of mouse; plasma; average of 8 mice; read-out: T1/2 (converted)

molecule	half-life
COc1ccc(CN2CCNCC2)c(OC)c1OC [TMZ, Trimetazidine, reference compound]	1.72 h

---

test: Plasma pharmacokinetics in mice determined by GLMSD; assay type: in vivo, mouse; conditions: mouse, in vivo, 40 mg/kg

smiles record	units of measure	Tmax
CCOc1ccc(C(=O)NCCCN(C)CCCN(C)Cc2ccccc2)cc1Br	h	2

---

assay: Plasma pharmacokinetics in mice determined by GLMSD; assay type: in vivo, mouse; details: mouse, in vivo, 40 mg/kg
endpoint: Cmax (ng/mL)

compound	endpoint	observed measurement
CCOc1ccc(C(=O)NCCCN(C)CCCN(C)Cc2ccccc2)cc1Br [compound 27]	Cmax	14600

---

Experiment: Plasma pharmacokinetics in mice determined by GLMSD
Assay type: in vivo, mouse
Details: ip; TMZ injected into abdominal cavity of mouse; plasma; average of 8 mice; read-out: Cmax
Description: It can be seen from FIG. 8-1 that the GLMSD platform can specifically acquire the pharmacokinetic data of small-molecule compound 27. Competitive advantages of GLMSD in pharmacokinetic research: (1) a complete drug blood concentration curve of each individual may be tracked; and (2) the total number of mice used in the test is reduced. […]
endpoint: Cmax (µg/mL)

compound	endpoint	observed measurement
COc1ccc(CN2CCNCC2)c(OC)c1OC [TMZ, Trimetazidine, reference compound]	Cmax	33.7

---

assay: Plasma pharmacokinetics in mice determined by GLMSD; format: in vivo, mouse; settings: mouse, in vivo, 40 mg/kg

compound	AUC(0-t) [µg·h/mL]
CCOc1ccc(C(=O)NCCCN(C)CCCN(C)Cc2ccccc2)cc1Br [compound 27]	64.4

---

assay: Plasma pharmacokinetics in mice determined by GLMSD; assay type: in vivo, mouse; settings: mouse, in vivo, 40 mg/kg
endpoint: half-life

compound	endpoint	observed measurement
CCOc1ccc(C(=O)NCCCN(C)CCCN(C)Cc2ccccc2)cc1Br [compound 27]	half-life	4.12 h
